- System: K. pneumoniae CI Koprana 100650661:1, PmxR
- CONDITIONS: MIC K. pneumoniae CI Koprana 100650661:1, PmxR (µg/mL)
Numbered stars: 1 amine (or outer) side, 2 acyl side, 3 side chain; on linkers, the order of the positions; unused ones are H or OH. Bridge positions count the residues as written; N and C are the ends. Square brackets hold non-standard residues; d marks the D form. Peptide text beside a SMILES is read from it. * marks the point of attachment. dGly(nOct) = CCCCCCCC[C@@H](N)C(=O)O; Gly(octyl) = CCCCCCCC[C@H](N)C(=O)O; NH(2-ClPh) = Clc1ccccc1N*; dDab = NCC[C@@H](N)C(=O)O; hSer = N[C@@H](CCO)C(=O)O; Octanoyl = CCCCCCCC(=O)*; Dab = NCC[C@H](N)C(=O)O; CO = O=C([*:1])[*:2]
METRIC: MIC

These solved cases illustrate the format of a correct answer.
{"COMPOUND": "CCCCCCCC[C@@H]1NC(=O)[C@@H](Cc2ccccc2)NC(=O)[C@H](CCN)NC(=O)[C@@H](NC(=O)[C@H](CCN)NC(=O)[C@@H](NC(=O)[C@H](CCN)NC(=O)CCCCCCC)[C@@H](C)O)CCNC(=O)[C@H]([C@@H](C)O)NC(=O)[C@H](CCN)NC(=O)[C@H](CCN)NC1=O (Octanoyl-[Dab]T[Dab][Dab][Dab][dF][Gly(octyl)][Dab][Dab]T; lactam 4-C)", "MIC": "32 µg/mL"}
{"COMPOUND": "CCCCCCCC(=O)N[C@@H](CCN)C(=O)N[C@H](C(=O)N[C@H](CCN)C(=O)N[C@H]1CCNC(=O)[C@H]([C@@H](C)O)NC(=O)[C@H](CCN)NC(=O)[C@H](CCN)NC(=O)[C@H](CC(C)C)NC(=O)[C@@H](Cc2ccccc2)NC(=O)[C@H](CCN)NC1=O)[C@@H](C)O [Compound 36] (Octanoyl-[Dab]T[dDab][Dab][Dab][dF]L[Dab][Dab]T; lactam 4-C)", "MIC": "> 32 µg/mL"}
{"COMPOUND": "CCCCCCCC(=O)N[C@@H](CCN)C(=O)N[C@H](C(=O)N[C@@H](CCN)C(=O)N[C@H]1CCNC(=O)[C@H]([C@@H](C)O)NC(=O)[C@H](CCN)NC(=O)[C@H](CCO)NC(=O)[C@H](CC(C)C)NC(=O)[C@@H](Cc2ccccc2)NC(=O)[C@H](CCN)NC1=O)[C@@H](C)O [Compound 24] (Octanoyl-[Dab]T[Dab][Dab][Dab][dF]L[hSer][Dab]T; lactam 4-C)", "MIC": "> 32 µg/mL"}
{"COMPOUND": "CC(C)C[C@@H]1NC(=O)[C@@H](Cc2ccccc2)NC(=O)[C@H](CCN)NC(=O)[C@@H](NC(=O)[C@H](CCN)NC(=O)[C@@H](NC(=O)[C@H](CCN)NC(=O)Nc2ccccc2Cl)[C@@H](C)O)CCNC(=O)[C@H]([C@@H](C)O)NC(=O)[C@H](CCN)NC(=O)[C@H](CCN)NC1=O [Compound 13] ({NH(2-ClPh)-CO}-[Dab]T[Dab][Dab][Dab][dF]L[Dab][Dab]T; lactam 4-C)", "MIC": "> 32 µg/mL"}

Fill in MIC for each of the 2 compounds listed.
1. CCCCCCCC(=O)N[C@@H](CCN)C(=O)N[C@H](C(=O)N[C@@H](CCN)C(=O)N[C@H]1CCNC(=O)[C@H]([C@@H](C)O)NC(=O)[C@H](CCN)NC(=O)[C@H](CCN)NC(=O)[C@H](CC(C)C)NC(=O)[C@@H](Cc2ccccc2)NC(=O)[C@H](CCO)NC1=O)[C@@H](C)O [Compound 33] (Octanoyl-[Dab]T[Dab][Dab][hSer][dF]L[Dab][Dab]T; lactam 4-C)
2. CCCCCCCC[C@H]1NC(=O)[C@H](CCN)NC(=O)[C@@H](NC(=O)[C@H](CCN)NC(=O)[C@@H](NC(=O)[C@H](CCN)NC(=O)CCCCCCC)[C@@H](C)O)CCNC(=O)[C@H]([C@@H](C)O)NC(=O)[C@H](CCN)NC(=O)[C@H](CCN)NC(=O)[C@H](CC(C)C)NC1=O (Octanoyl-[Dab]T[Dab][Dab][Dab][dGly(nOct)]L[Dab][Dab]T; lactam 4-C)

Reply:
> 32 µg/mL
16 µg/mL

These data points were gathered from paper PMC4774972.
